For each record, write down the corresponding pIC50.
- Test system: MCF7
- experiment description: Cytotoxicity against human MCF7 cells by MTT assay
- Format: functional, cell-based
Answer as the number alone; pIC50 is minus log10 of concentration in mol/L.

[ask] I'm curious: which pIC50 was measured for Cc1ccc(Cn2c(-c3ccccc3/C=C/c3ccccc3)nc3ccccc3c2=O)cc1 tested on MCF7?
[reply] 4.61

[ask] Now this one: CCC(C)n1c(-c2ccccc2/C=C/c2ccccc2)nc2ccccc2c1=O (stereo not given)
[reply] 5.42

[ask] Now this one: CCn1c(-c2ccccc2/C=C/c2ccccc2)nc2ccccc2c1=O
[reply] 5.06

[ask] Now this one: C=CCn1c(-c2ccccc2/C=C/c2ccccc2)nc2ccccc2c1=O
[reply] 4.99
